- target-or-test-system: DNA gyrase (Escherichia coli, UniProt P0AES4+P0AES6)
- assay-procedure: Inhibition of Escherichia coli DNA gyrase GyrA/GyrB
readout-kind: pIC50
On this scale, pIC50 is minus log10 of a concentration expressed in M (mol/L).

Task: State the recorded pIC50 for this entry: CCn1cc(C(=O)O)c(=O)c2cc(F)c(N3CCNCC3)nc21
Output: 4.85

----------
- target-or-test-system: DNA gyrase subunit A/DNA gyrase subunit B (Mycobacterium tuberculosis (strain ATCC 25618 / H37Rv), UniProt P9WG45+P9WG47)
- Sequence (P9WG45 whole entry): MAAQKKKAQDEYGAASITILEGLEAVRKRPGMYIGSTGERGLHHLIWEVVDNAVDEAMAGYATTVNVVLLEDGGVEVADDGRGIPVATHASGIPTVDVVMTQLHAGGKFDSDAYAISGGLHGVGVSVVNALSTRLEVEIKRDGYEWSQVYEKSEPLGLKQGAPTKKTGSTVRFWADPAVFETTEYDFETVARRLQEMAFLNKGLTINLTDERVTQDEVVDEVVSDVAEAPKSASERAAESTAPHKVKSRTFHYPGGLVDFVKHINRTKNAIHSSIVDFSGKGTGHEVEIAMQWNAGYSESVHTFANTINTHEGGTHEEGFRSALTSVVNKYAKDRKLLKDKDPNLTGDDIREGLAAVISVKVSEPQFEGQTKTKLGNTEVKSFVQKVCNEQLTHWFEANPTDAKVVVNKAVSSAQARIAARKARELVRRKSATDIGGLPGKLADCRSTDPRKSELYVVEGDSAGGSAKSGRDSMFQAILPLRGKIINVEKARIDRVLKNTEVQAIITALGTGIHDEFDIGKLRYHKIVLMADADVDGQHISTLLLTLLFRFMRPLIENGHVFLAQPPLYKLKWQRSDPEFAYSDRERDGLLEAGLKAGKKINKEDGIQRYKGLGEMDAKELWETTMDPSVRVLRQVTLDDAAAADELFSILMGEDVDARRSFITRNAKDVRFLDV
- Sequence (P9WG47 whole entry): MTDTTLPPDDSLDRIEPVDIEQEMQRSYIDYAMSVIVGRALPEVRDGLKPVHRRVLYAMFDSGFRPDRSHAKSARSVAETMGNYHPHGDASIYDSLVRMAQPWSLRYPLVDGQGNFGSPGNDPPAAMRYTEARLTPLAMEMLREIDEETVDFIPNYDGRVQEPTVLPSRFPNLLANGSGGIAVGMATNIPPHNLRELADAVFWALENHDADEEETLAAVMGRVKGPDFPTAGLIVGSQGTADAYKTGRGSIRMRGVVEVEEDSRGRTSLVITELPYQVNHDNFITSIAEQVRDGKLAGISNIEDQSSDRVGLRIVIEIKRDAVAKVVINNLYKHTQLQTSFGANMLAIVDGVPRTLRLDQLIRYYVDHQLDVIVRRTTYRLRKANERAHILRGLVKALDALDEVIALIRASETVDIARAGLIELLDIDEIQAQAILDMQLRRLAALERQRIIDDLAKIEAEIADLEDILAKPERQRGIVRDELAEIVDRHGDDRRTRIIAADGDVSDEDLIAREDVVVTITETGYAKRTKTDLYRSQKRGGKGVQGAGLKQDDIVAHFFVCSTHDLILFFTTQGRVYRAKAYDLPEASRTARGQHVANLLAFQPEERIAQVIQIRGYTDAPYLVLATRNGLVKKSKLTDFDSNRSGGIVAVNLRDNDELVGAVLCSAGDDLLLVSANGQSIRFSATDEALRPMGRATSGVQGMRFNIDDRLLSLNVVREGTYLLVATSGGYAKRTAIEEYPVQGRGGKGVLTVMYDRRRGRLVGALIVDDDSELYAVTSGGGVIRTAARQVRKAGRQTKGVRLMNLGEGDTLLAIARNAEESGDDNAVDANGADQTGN
- assay-procedure: Inhibition of Mycobacterium tuberculosis DNA gyrase GyrA/GyrB
# Lookup of reported pIC50 keyed by entry
pIC50 is a log-scale quantity: -log10 of the concentration expressed in molar.

CCn1cc(C(=O)O)c(=O)c2cc(F)c(N3CCNCC3)nc21	3.81
CC1COc2c(N3CCN(C)CC3)c(F)cc3c(=O)c(C(=O)O)cn1c23 (stereo not drawn)	4.55

Now for another entry.
Task: Any idea what pIC50 was measured for CCn1cc(C(=O)O)c(=O)c2ccc(C)nc21 ?
Output: 2.32
